- target.under.test: human Edg-1 receptor (Homo sapiens, UniProt P21453)
- Construct: FLAG (N); expressed in transfected cells; membrane preparation
- Sequence (P21453 whole entry): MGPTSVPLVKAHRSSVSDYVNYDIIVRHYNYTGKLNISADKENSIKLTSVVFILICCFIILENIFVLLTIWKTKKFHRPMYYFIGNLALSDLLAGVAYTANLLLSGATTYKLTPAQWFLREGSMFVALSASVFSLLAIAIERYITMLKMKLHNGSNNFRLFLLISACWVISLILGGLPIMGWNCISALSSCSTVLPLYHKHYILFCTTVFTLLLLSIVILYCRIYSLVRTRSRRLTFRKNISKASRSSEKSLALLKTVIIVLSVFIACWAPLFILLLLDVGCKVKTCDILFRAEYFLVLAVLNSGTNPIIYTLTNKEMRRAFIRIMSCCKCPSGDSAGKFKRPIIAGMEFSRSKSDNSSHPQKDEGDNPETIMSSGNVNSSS
- experiment.notes: GTP-γ-S assay using human Edg-1 receptors (SPA, CHO Flp-In cell membrane preparation)
- Assay type: biochemical
- condition.details: test compound at 10 μM; high control 10 μM S1P regarded as 100% activation; background-corrected; triplicate; read-out: % Activation (Edg-1 receptor activation in percent of the activation by 10 μM S1P)
measurement.kind: activation at 10 µM (%)

Below, each entry is followed by its recorded activation at 10 µM result.
compound	activation at 10 µM / %
Cc1cccc(-c2nc3c(OCC4CC4)nc(SC4CCS(=O)(=O)C4)nc3o2)c1 (stereo not drawn)	69
CCCOc1nc(Oc2cc(C)cc(C)c2C)nc2oc(-c3cccc(C)c3)nc12	65
CCCOc1nc(Oc2cccc(N(C)C)c2)nc2oc(-c3cccc(C)c3)nc12	51

a. CCOc1nc(Oc2ccccc2F)nc2oc(-c3cc(F)ccc3Cl)nc12
b. CCCOc1nc(Oc2cccc(C#N)c2)nc2oc(-c3cccc(C)c3)nc12
c. CCCOc1nc(Oc2c(C)cc(C)cc2C)nc2oc(-c3cccc(C)c3)nc12
Q. Arrange these 3 compounds in increasing order of activation at 10 µM. Thanks in advance for listing the labels in the requested order.
A. c, b, a
